Target: Solute carrier family 2, facilitated glucose transporter member 1 (Homo sapiens)
Assay: ST_JUDE_LEISH: Cytotoxicity at 2uM final concentration against transgenic Leishmania Mexicana promastigotes LmGLUT1 that are glucose transport deficient and complemented with the human glucose transporter GLUT1. Activity is measured by DNA content using SYBR green in vitro
Assay type: functional
quantity kind: inhibition (%)
Field: numeric (%). Do not append units.

Prompt: Would you kindly share the measured inhibition for CN(C)CCOc1cc(NC(=O)c2ccc(-c3ccc(Cl)cc3Cl)cc2)ccc1-c1ccccc1 ?
Response: 0.11

Prompt: Sample COc1ccc(-c2csc(N(CCCN(C)C)C(=O)c3cc4c(C)nn(-c5ccccc5)c4s3)n2)cc1 — what was its inhibition?
Response: 0.66

Prompt: Look up inhibition for this compound: N#Cc1ccc(-c2ccc(C(=O)NCCCCN3CCC(c4ccc5c(c4OCc4ccccn4)CCCC5)CC3)cc2)cc1
Response: -0.71

Prompt: Quick one: inhibition of CN1CCN(Cc2ccc(-c3cccc(-c4nc5ccccc5[nH]4)c3)cc2)CC1 ?
Response: 1.13

Prompt: Given the entry CCc1cccc(-c2cc(N)n(C)c3nc(N)nc(=O)c2-3)c1 , report its measured inhibition.
Response: -0.01

Prompt: What inhibition value was documented for this compound, Nc1ncc(-c2ccc(F)cc2)c2ccc(-c3cccc(F)c3)cc12 ?
Response: 5.19

Prompt: Which measured inhibition value corresponds to Oc1cc(-c2nc(-c3ccccc3)[nH]c2-c2ccncc2)ccc1Cl ?
Response: 4.1

Prompt: I would be grateful if you could share the reported inhibition for O=C(CSc1nc(-c2ccccc2Cl)ns1)Nc1ccc2c(c1)OCO2 .
Response: -0.52

Prompt: Could you tell me which inhibition is on file for COc1ccc(NC(=O)/C=C/c2ccc(-c3ccccc3)cc2)cc1N1CCN(C)CC1 ?
Response: 2.62

Prompt: Return reported inhibition; argument: Nc1nc(N)c2c(ccc3c2ccn3CCCCO)n1
Response: 5.49

Prompt: Tell me the measured inhibition of COc1ccc2nccc([C@@H](O)CN3CCC(NC(=O)C(c4cc5ccccc5o4)N4CCN(c5ccccc5)CC4)CC3)c2c1 (stereo not given in full) , please.
Response: 5.51

Prompt: What does the record list as inhibition for Clc1ncnc2scc(-c3ccc(Br)cc3)c12 ?
Response: 7.74

Prompt: I'd like to know its inhibition. The compound in question is CC1CN(Cc2cccc(F)c2)CCN1c1ccc(NC(=O)c2cccs2)cc1 (stereo not given)
Response: -0.87

Prompt: Endpoint output: inhibition of O=C(C=Cc1ccc(C(=O)Nc2ccc(C3=NCCN3)cc2)cc1)Nc1ccc(C2=NCCN2)cc1 . Value?
Response: 5.16

Prompt: Endpoint output: inhibition of Cc1cc(N[C@@H](Cc2ccccc2)C(=O)NCc2cccs2)nc(NCCc2cccnc2)n1 . Value?
Response: 1.39

Prompt: Request the reported inhibition associated with Cc1ccc(-c2nnc(-c3ccc(C(=O)NC4CCN(Cc5ccc(C#N)cc5)CC4)cc3)o2)cc1Br
Response: 8.8

Prompt: Form field: reported inhibition of CCN(CCCN1CCCCC1)c1cc(C)nc(Nc2ccc(Br)cc2F)n1
Response: 0.13

Prompt: Using the record for COc1ccc(-c2ccc(NC(=O)c3ccc(Cl)cc3)cc2)cc1CN(C)CCN(C)C , report its inhibition.
Response: 9.47

Prompt: # inhibition lookup, item CN1CCc2ccc(NC(=O)Nc3ccc(-c4ccccc4)cc3)cc2C1
Response: 1.53

Prompt: Data request, read-out inhibition, for CNC(=O)c1cnc(Nc2ccc3[nH]c(=O)[nH]c3c2)nc1Nc1cccc(OC(C)C)c1
Response: -0.17
